Data credit: patent US20050107289A1

System: Bacillus cereus ATCC 11778
Type: cell-based
Non-standard residues stand in square brackets, D forms with d. Residues, ends and D or L forms follow the SMILES beside them.
# B. cerius MIC values compiled below
readout: B. cerius MIC (µg/mL)

molecule="CC(C)C[C@H]1NC(=O)[C@H](Cc2c[nH]c3ccccc23)NC(=O)[C@@H](CO)NC(=O)[C@H](CCCCN)NC(=O)[C@@H](CO)NC(=O)[C@H](Cc2c[nH]c3ccccc23)NC(=O)[C@@H](CC(C)C)NC(=O)[C@H](Cc2c[nH]c3ccccc23)NC1=O [SEQ ID NO:5] (cyclo(K[dS]W[dL]W[dL]W[dS]))" readout="B. cerius MIC" endpointunit=µg/mL valuecomparator=> testvalue=30
molecule="CC(=O)N[C@H](CCCCN)C(=O)N[C@@H](CCCCN)C(=O)N[C@H](CCCCN)C(=O)N[C@@H](Cc1c[nH]c2ccccc12)C(=O)N[C@H](CC(C)C)C(=O)N[C@@H](Cc1c[nH]c2ccccc12)C(=O)N[C@H](CC(C)C)C(=O)N[C@H](Cc1c[nH]c2ccccc12)C(N)=O [SEQ ID NO:25, Ac-KKKWLWLW-CONH2] (Ac-[dK]K[dK]W[dL]W[dL][dW]-NH2)" readout="B. cerius MIC" endpointunit=µg/mL valuecomparator== testvalue=75

###

Tested on: murine red blood cells
assayInfo: Red blood cell hemolysis
Type: cell-based, mouse
Non-standard residues stand in square brackets, D forms with d. Residues, ends and D or L forms follow the SMILES beside them.
readout: RBC Hemolysis (HD50)

compound="N=C(N)NCCC[C@H]1NC(=O)[C@H](CCCCN)NC(=O)[C@@H](Cc2ccccc2)NC(=O)[C@H](Cc2c[nH]c3ccccc23)NC(=O)[C@@H](Cc2ccccc2)NC(=O)[C@H](CCCCN)NC(=O)[C@@H](Cc2ccccc2)NC(=O)[C@H](CCC(N)=O)NC1=O [SEQ ID NO:102, [KRQFKFWF]] (cyclo(K[dR]Q[dF]K[dF]W[dF]))" testvalue=>200
compound="CC(C)C[C@H]1NC(=O)[C@H](C)NC(=O)[C@@H](CC(C)C)NC(=O)[C@H](CCCCN)NC(=O)[C@@H](CO)NC(=O)[C@H](CCCCN)NC(=O)[C@@H](CC(C)C)NC(=O)[C@H](C)NC1=O [SEQ ID NO:53, [KSKLALAL]] (cyclo(K[dS]K[dL]A[dL]A[dL]))" testvalue=>280
compound="CC(C)C[C@H]1NC(=O)[C@H](Cc2c[nH]cn2)NC(=O)[C@@H](CCCCN)NC(=O)[C@H](Cc2c[nH]c3ccccc23)NC(=O)[C@@H](CC(C)C)NC(=O)[C@H](Cc2c[nH]c3ccccc23)NC1=O [SEQ ID NO:27, cyclo-(D-Lys-His-D-Leu-Trp-D-Leu-Trp)] (cyclo(H[dL]W[dL]W[dK]))" testvalue=25

###

assayInfo: Toxicity studies in mice
Type: in vivo
Set-up: unit not given here
studyConditions: Table 12; male Balb-C mice
Non-standard residues stand in square brackets, D forms with d. Residues, ends and D or L forms follow the SMILES beside them.
Catalogue of LD50(IV) values
readout: LD50(IV)

compound="CC(C)C[C@H]1NC(=O)[C@H](Cc2c[nH]c3ccccc23)NC(=O)[C@@H](CCCNC(=N)N)NC(=O)[C@H](CCC(N)=O)NC(=O)[C@@H](CCCCN)NC(=O)[C@H](Cc2c[nH]c3ccccc23)NC(=O)[C@@H](CC(C)C)NC(=O)[C@H](Cc2c[nH]c3ccccc23)NC1=O [SEQ ID NO:8] (cyclo([dK]Q[dR]W[dL]W[dL]W))" testvalue=>12
compound="CC(C)C[C@H]1NC(=O)[C@H](CCCCN)NC(=O)[C@@H](CCCCN)NC(=O)[C@H](Cc2c[nH]c3ccccc23)NC(=O)[C@@H](CC(C)C)NC(=O)[C@H](Cc2c[nH]c3ccccc23)NC1=O [SEQ ID NO:26, cyclo-(D-Lys-Lys-D-Leu-Trp-D-Leu-Trp)] (cyclo(K[dL]W[dL]W[dK]))" testvalue=24
compound="CC(C)C[C@H]1NC(=O)[C@H](Cc2c[nH]c3ccccc23)NC(=O)[C@@H](CCCCN)NC(=O)[C@H](CCCNC(=N)N)NC(=O)[C@@H](CCCNC(=N)N)NC(=O)[C@H](Cc2c[nH]c3ccccc23)NC(=O)[C@@H](CC(C)C)NC(=O)[C@H](Cc2c[nH]c3ccccc23)NC1=O [SEQ ID NO:18] (cyclo([dR]R[dK]W[dL]W[dL]W))" testvalue=16
compound="CC(C)C[C@H]1NC(=O)[C@H](Cc2c[nH]c3ccccc23)NC(=O)[C@@H](CCCCN)NC(=O)[C@H](CO)NC(=O)[C@@H](CCCCN)NC(=O)[C@H](Cc2c[nH]c3ccccc23)NC(=O)[C@@H](CC(C)C)NC(=O)[C@H](Cc2c[nH]c3ccccc23)NC1=O [SEQ ID NO:12, D-Lys-Ser-D-Lys-Trp-D-Leu-Trp-D-Leu-Trp] (cyclo([dK]S[dK]W[dL]W[dL]W))" testvalue=70

###

Test system: Bacillus cereus ATCC 11778
Assay type: cell-based
Non-standard residues stand in square brackets, D forms with d. Residues, ends and D or L forms follow the SMILES beside them. NMeL = CN[C@@H](CC(C)C)C(=O)O
# key: entry, value: B. cerius MIC
readout: B. cerius MIC (µg/mL)

compound="CC(C)C[C@H]1C(=O)N[C@H](Cc2c[nH]c3ccccc23)C(=O)N(C)[C@@H](CC(C)C)C(=O)N[C@H](Cc2c[nH]c3ccccc23)C(=O)N[C@@H](CCCNC(=N)N)C(=O)N[C@H](CCCNC(=N)N)C(=O)N[C@@H](CCCCN)C(=O)N[C@H](Cc2c[nH]c3ccccc23)C(=O)N1C [SEQ ID NO:139, c[RRKW^MeLW^MeLW]] (cyclo(R[dR]K[dW][NMeL][dW][NMeL][dW]))" readout="B. cerius MIC" testvalue=5
compound="CC(C)C[C@H]1NC(=O)[C@H](Cc2c[nH]c3ccccc23)NC(=O)[C@@H](CCCCN)NC(=O)[C@H](CCCNC(=N)N)NC(=O)[C@@H](CCCNC(=N)N)NC(=O)[C@H](Cc2c[nH]c3ccccc23)NC(=O)[C@@H](CC(C)C)NC(=O)[C@H](CCCCN)NC1=O [SEQ ID NO:111, [RRKWLKLW]] (cyclo([dR]R[dK]W[dL]K[dL]W))" readout="B. cerius MIC" testvalue=23
compound="CC(C)C[C@H]1NC(=O)[C@H](CCCCN)NC(=O)[C@@H](CC(C)C)NC(=O)[C@H](Cc2c[nH]c3ccccc23)NC(=O)[C@@H](CC(C)C)NC(=O)[C@H](Cc2c[nH]c3ccccc23)NC(=O)[C@@H](CC(C)C)NC(=O)[C@H](Cc2c[nH]c3ccccc23)NC1=O [SEQ ID NO:3, cyclo[-Lys-D-Leu-(Trp-D-Leu)3]] (cyclo(K[dL]W[dL]W[dL]W[dL]))" readout="B. cerius MIC" testvalue=50

###

System: murine red blood cells
assayInfo: Red blood cell hemolysis
Assay type: cell-based, mouse
studyConditions: red cells of murine
Non-standard residues stand in square brackets, D forms with d. Residues, ends and D or L forms follow the SMILES beside them.
# Hemolysis HD50 listing for each entry below
readout: Hemolysis HD50 (µg/mL)

compound="CC(C)C[C@H]1NC(=O)[C@H](Cc2c[nH]c3ccccc23)NC(=O)[C@@H](CCCCN)NC(=O)[C@H](CCCNC(=N)N)NC(=O)[C@@H](CCCNC(=N)N)NC(=O)[C@H](Cc2c[nH]c3ccccc23)NC(=O)[C@@H](CC(C)C)NC(=O)[C@H](CCC(=O)O)NC1=O [SEQ ID NO:109, [RRKWLELW]] (cyclo([dR]R[dK]W[dL]E[dL]W))" assaysystem="murine red blood cells" readout="Hemolysis HD50" testvalue=100
compound="CC(C)C[C@H]1NC(=O)[C@H](Cc2c[nH]c3ccccc23)NC(=O)[C@@H](CCCCN)NC(=O)[C@H](CCCNC(=N)N)NC(=O)[C@@H](CCCNC(=N)N)NC(=O)[C@H](Cc2c[nH]c3ccccc23)NC(=O)[C@@H](CC(C)C)NC(=O)[C@H](Cc2c[nH]cn2)NC1=O [SEQ ID NO:110, [RRKWLHLW]] (cyclo([dR]R[dK]W[dL]H[dL]W))" assaysystem="murine red blood cells" readout="Hemolysis HD50" testvalue=100

###

System: murine red blood cells
assayInfo: Red blood cell hemolysis
Assay type: cell-based, mouse
Non-standard residues stand in square brackets, D forms with d. Residues, ends and D or L forms follow the SMILES beside them.
Reported RBC Hemolysis (HD50) by item:
readout: RBC Hemolysis (HD50)

compound="C[C@H]1NC(=O)[C@H](CCC(N)=O)NC(=O)[C@@H](C)NC(=O)[C@H](CCCCN)NC(=O)[C@@H](C)NC(=O)[C@H](Cc2c[nH]c3ccccc23)NC(=O)[C@@H](C)NC(=O)[C@H](CCCCN)NC1=O [SEQ ID NO:95, [KAQAKAWA]] (cyclo(K[dA]Q[dA]K[dA]W[dA]))" testvalue=>200
compound="CC(C)C[C@H]1NC(=O)[C@H](C)NC(=O)[C@@H](CC(C)C)NC(=O)[C@H](CCCCN)NC(=O)[C@@H]([C@H](C)O)NC(=O)[C@H](CCCCN)NC(=O)[C@@H](CC(C)C)NC(=O)[C@H](C)NC1=O [SEQ ID NO:64, [KTKLALAL]] (cyclo(K[dT]K[dL]A[dL]A[dL]))" testvalue=>160
compound="CC(C)C[C@H]1NC(=O)[C@H](Cc2c[nH]c3ccccc23)NC(=O)[C@@H](CCCCN)NC(=O)[C@H](CCCNC(=N)N)NC(=O)[C@@H](CCCNC(=N)N)NC(=O)[C@H](Cc2c[nH]c3ccccc23)NC(=O)[C@@H](CC(C)C)NC(=O)[C@H](CO)NC1=O [SEQ ID NO:112, [RRKWLSLW]] (cyclo([dR]R[dK]W[dL]S[dL]W))" testvalue=100
compound="CC(C)C[C@@H]1NC(=O)[C@@H](Cc2c[nH]c3ccccc23)NC(=O)[C@H](CCCCN)NC(=O)[C@@H](Cc2c[nH]cn2)NC(=O)[C@H](CO)NC(=O)[C@@H](Cc2c[nH]cn2)NC(=O)[C@H](CCCCN)NC(=O)[C@@H](Cc2c[nH]c3ccccc23)NC1=O [SEQ ID NO:88, [KHSHKWLW]] (cyclo([dW]L[dW]K[dH]S[dH]K))" testvalue=200
compound="CC(C)C[C@H]1NC(=O)[C@H](Cc2c[nH]c3ccccc23)NC(=O)[C@@H](Cc2ccccc2)NC(=O)[C@H](CCCCN)NC(=O)[C@@H](Cc2c[nH]c3ccccc23)NC(=O)[C@H](Cc2c[nH]cn2)NC(=O)[C@@H](CC(C)C)NC(=O)[C@H](Cc2c[nH]c3ccccc23)NC1=O [SEQ ID NO:99, [KFWLWLHW]] (cyclo(K[dF]W[dL]W[dL]H[dW]))" testvalue=>25
compound="CC(C)C[C@@H]1NC(=O)[C@@H](Cc2c[nH]c3ccccc23)NC(=O)[C@H](CCCCN)NC(=O)[C@@H](CCCCN)NC(=O)[C@H](CCCCN)NC(=O)[C@@H](Cc2c[nH]c3ccccc23)NC1=O [SEQ ID NO:121, [KKKWLW]] (cyclo(K[dK]K[dW]L[dW]))" testvalue=>111
compound="CC(C)C[C@H]1NC(=O)[C@H](Cc2ccc(O)cc2)NC(=O)[C@@H](CCCCN)NC(=O)[C@H](CO)NC(=O)[C@@H](CO)NC(=O)[C@H](CCCCN)NC(=O)[C@@H](CC(C)C)NC(=O)[C@H](Cc2ccc(O)cc2)NC1=O [SEQ ID NO:83, [KSSKYLYL]] (cyclo(K[dS]S[dK]Y[dL]Y[dL]))" testvalue=>340
